Source of measurements: paper PMC10108266

- MEASUREMENT DESCRIPTION: JACKPOT2 single-ascending-dose plasma PK, healthy participants in USA
- Type: in vivo, human
- CONDITIONS: human, plasma, oral; single dose 50 mg; geometric mean (CV%)
ASSAY READOUT: Cmax (ng/mL)
Give the number; ng/mL is assumed, so skip it.

Problem: Fill in the blank: the reported Cmax of COc1nn(C)cc1Nc1nccc(-c2c[nH]c3c(NC(=O)[C@@H](C)N4CCN(C)CC4)cccc23)n1 is ____.
Result: 48.5

----------
- MEASUREMENT DESCRIPTION: JACKPOT2 single-ascending-dose plasma PK, healthy participants in USA
- Type: in vivo, human
- CONDITIONS: human, plasma, oral; single dose 20 mg; geometric mean (CV%)
ASSAY READOUT: AUC(0-inf) (ng·h/mL)
Just the number please, in ng·h/mL, no unit attached.

Problem: Request the reported AUC(0-inf) associated with COc1nn(C)cc1Nc1nccc(-c2c[nH]c3c(NC(=O)[C@@H](C)N4CCN(C)CC4)cccc23)n1
Result: 923

----------
- MEASUREMENT DESCRIPTION: JACKPOT3 single-ascending-dose plasma PK, healthy Chinese participants
- Format: in vivo, human
- CONDITIONS: human, plasma, oral; single dose 150 mg; geometric mean (CV%)
ASSAY READOUT: Cmax (ng/mL)
Return type: number; implicit unit ng/mL.

Problem: Suppose we examine the molecule COc1nn(C)cc1Nc1nccc(-c2c[nH]c3c(NC(=O)[C@@H](C)N4CCN(C)CC4)cccc23)n1 [golidocitinib] ; what Cmax value has been reported?
Result: 280

----------
- MEASUREMENT DESCRIPTION: JACKPOT3 single-ascending-dose plasma PK, healthy Chinese participants
- Format: in vivo, human
- CONDITIONS: human, plasma, oral; single dose 50 mg; mean (SD); read-out: Vz/F
ASSAY READOUT: Vd/F (L)
I only need the number, in L, no unit after it.

Problem: Looking for the measured Vd/F of COc1nn(C)cc1Nc1nccc(-c2c[nH]c3c(NC(=O)[C@@H](C)N4CCN(C)CC4)cccc23)n1 [golidocitinib] , can you help?
Result: 1160

----------
- MEASUREMENT DESCRIPTION: Pooled JACKPOT2/JACKPOT3 SAD analysis of the effect of race on PK
- Type: in vivo, human
- CONDITIONS: human, plasma, oral, Asian, single dose, ANOVA; read-out: t1/2, GLS Mean (converted)
ASSAY READOUT: half-life (h)
Response body: numeric value in h, unit text excluded.

Problem: Name the reported half-life value associated with the compound COc1nn(C)cc1Nc1nccc(-c2c[nH]c3c(NC(=O)[C@@H](C)N4CCN(C)CC4)cccc23)n1
Result: 35.4

----------
- MEASUREMENT DESCRIPTION: JACKPOT2 multiple-ascending-dose plasma PK (once daily, 14 days)
- Assay type: in vivo, human
- CONDITIONS: human, plasma, oral, 50 mg, 50 mg once daily, Day 1; geometric mean (CV%); read-out: AUC0-24h
ASSAY READOUT: AUC(0-t)

Problem: Using the record for COc1nn(C)cc1Nc1nccc(-c2c[nH]c3c(NC(=O)[C@@H](C)N4CCN(C)CC4)cccc23)n1 , report its AUC(0-t).
Result: 1020 ng·h/mL

----------
- MEASUREMENT DESCRIPTION: JACKPOT3 single-ascending-dose plasma PK, healthy Chinese participants
- Assay type: in vivo, human
- CONDITIONS: human, plasma; single oral administration, across the dose range, Chinese participants; read-out: median terminal half-life (t1/2)
ASSAY READOUT: half-life

Problem: # query: half-life of entry COc1nn(C)cc1Nc1nccc(-c2c[nH]c3c(NC(=O)[C@@H](C)N4CCN(C)CC4)cccc23)n1
Result: 28.3 to 46.7 h

----------
- MEASUREMENT DESCRIPTION: Pooled JACKPOT2/JACKPOT3 SAD analysis of the effect of race on PK
- Assay type: in vivo, human
- CONDITIONS: human, plasma, oral, Caucasian, single dose, ANOVA; read-out: t1/2, GLS Mean (converted)
ASSAY READOUT: half-life (h)
The reply should contain only the number, in h.

Problem: // query half-life value for entry COc1nn(C)cc1Nc1nccc(-c2c[nH]c3c(NC(=O)[C@@H](C)N4CCN(C)CC4)cccc23)n1
Result: 40.8

----------
- MEASUREMENT DESCRIPTION: JACKPOT2 multiple-ascending-dose plasma PK (once daily, 14 days)
- Type: in vivo, human
- CONDITIONS: human, plasma, oral, 25 mg, 25 mg once daily, Day 14; geometric mean (CV%); read-out: AUC0-24h
ASSAY READOUT: AUC(0-t)
Units required after the number.

Problem: Dear colleague, I am looking for the recorded AUC(0-t) of the following compound: COc1nn(C)cc1Nc1nccc(-c2c[nH]c3c(NC(=O)[C@@H](C)N4CCN(C)CC4)cccc23)n1 [golidocitinib]
Result: 1530 ng·h/mL

----------
- MEASUREMENT DESCRIPTION: JACKPOT2 single-ascending-dose plasma PK, healthy participants in USA
- Format: in vivo, human
- CONDITIONS: human, plasma, oral; single dose 50 mg; median (min, max); read-out: t1/2 (converted)
ASSAY READOUT: half-life (h)
Respond with the bare value in h.

Problem: Give its half-life value. Item: COc1nn(C)cc1Nc1nccc(-c2c[nH]c3c(NC(=O)[C@@H](C)N4CCN(C)CC4)cccc23)n1
Result: 42.8

----------
- MEASUREMENT DESCRIPTION: JACKPOT2 multiple-ascending-dose plasma PK (once daily, 14 days)
- Type: in vivo, human
- CONDITIONS: human, plasma, oral, 25 mg, 25 mg once daily, Day 1; geometric mean (CV%); read-out: AUC0-24h
- From the text: A total of 42 and 24 healthy participants were enrolled in part A and part B, respectively. In part A, a total of 30 participants were randomized into 5 SAD cohorts (n = 6 per cohort) and received a single dose of golidocitinib at different dose levels or a matching placebo in a 4:2 ratio. In the food effect cohort, a total of 12 participants were enrolled and received the study drug under fasted or fed conditions, with a sequential design. […]
ASSAY READOUT: AUC(0-t) (ng·h/mL)
Enter your answer as a number in ng·h/mL; do not include the unit.

Problem: What does the record list as AUC(0-t) for COc1nn(C)cc1Nc1nccc(-c2c[nH]c3c(NC(=O)[C@@H](C)N4CCN(C)CC4)cccc23)n1 ?
Result: 536

----------
- MEASUREMENT DESCRIPTION: JACKPOT2 single-ascending-dose plasma PK, healthy participants in USA
- Type: in vivo, human
- CONDITIONS: human, plasma, oral; single dose 150 mg; geometric mean (CV%)
ASSAY READOUT: Cmax (ng/mL)
# output: bare number, implied unit ng/mL

Problem: Given COc1nn(C)cc1Nc1nccc(-c2c[nH]c3c(NC(=O)[C@@H](C)N4CCN(C)CC4)cccc23)n1 [golidocitinib] , state its recorded Cmax.
Result: 232

----------
- MEASUREMENT DESCRIPTION: JACKPOT3 single-ascending-dose plasma PK, healthy Chinese participants
- Assay type: in vivo, human
- CONDITIONS: human, plasma, oral; single dose 25 mg; median (min, max); read-out: t1/2 (converted)
- Description: This was a SAD study in healthy adult Asian participants, with a study design similar to the SAD cohorts of JACKPOT2 study. […] A total of 32 healthy participants were randomized to receive a single dose of golidocitinib or matched placebo (6:2). After single oral administration, serial blood samples were obtained on Day 1 at pre-dose, and at 0.5, 1, 1.5, 2, 3, 4, 6, 8, 12, 24 (Day 2), 48 (Day 3), 72 (Day 4), 120 (Day 6), 168 (Day 8) and 216 (Day 10) hours post-dose for plasma PK analysis. […]
ASSAY READOUT: half-life
I'd appreciate it if you wrote the number followed by its unit.

Problem: Which half-life value belongs to COc1nn(C)cc1Nc1nccc(-c2c[nH]c3c(NC(=O)[C@@H](C)N4CCN(C)CC4)cccc23)n1 ?
Result: 38 h

----------
- MEASUREMENT DESCRIPTION: JACKPOT2 multiple-ascending-dose plasma PK (once daily, 14 days)
- Assay type: in vivo, human
- CONDITIONS: human, plasma, oral, 50 mg, 50 mg once daily, Day 14; median (min, max)
ASSAY READOUT: Tmax (h)
Give the number; h is assumed, so skip it.

Problem: Record request: Tmax value, item COc1nn(C)cc1Nc1nccc(-c2c[nH]c3c(NC(=O)[C@@H](C)N4CCN(C)CC4)cccc23)n1 [golidocitinib]
Result: 6

----------
- MEASUREMENT DESCRIPTION: Pooled JACKPOT2/JACKPOT3 SAD analysis of the effect of race on PK
- Format: in vivo, human
- CONDITIONS: human, plasma, oral, Asian, n 24, single dose; read-out: Vz/F, Geometric Mean (CV%)
ASSAY READOUT: Vd/F (L)
Use L as the unit, but write only the number.

Problem: Name the recorded Vd/F for COc1nn(C)cc1Nc1nccc(-c2c[nH]c3c(NC(=O)[C@@H](C)N4CCN(C)CC4)cccc23)n1 [golidocitinib] .
Result: 1020
